Molecular target: SFRP-1 (Homo sapiens)
Sequence (Q8N474 32-314): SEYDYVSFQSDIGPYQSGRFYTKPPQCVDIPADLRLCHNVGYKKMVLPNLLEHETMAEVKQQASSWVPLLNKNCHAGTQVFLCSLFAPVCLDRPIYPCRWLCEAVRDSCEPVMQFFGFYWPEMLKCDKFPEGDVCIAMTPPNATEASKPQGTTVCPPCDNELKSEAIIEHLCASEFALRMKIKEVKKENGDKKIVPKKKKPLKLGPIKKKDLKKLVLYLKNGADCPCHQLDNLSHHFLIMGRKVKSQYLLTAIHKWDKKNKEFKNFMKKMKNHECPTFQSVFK
Assay: Cell-based assay for in vitro measurement of SFRP-1/SARP2 antagonist activity (U2OS cells co-transfected with 16x TCF-tk-Luciferase reporter, Wnt and hSFRP-1)
Details: U2OS, read-out: Fold Induction with SFRP-1, Conc 15 μM; with SFRP-1; fold induction over SFRP-1 control, single dose
fold induction at 15 µM: recorded values
Form field (numeric): enter value without unit.

| Smiles Input | fold induction at 15 µM |
| --- | --- |
| Cc1ccc(S(=O)(=O)c2ccccc2)cc1S(=O)(=O)NC1CCN(S(C)(=O)=O)CC1 | 2.3 |
| Cc1ccc(S(=O)(=O)c2ccccc2)cc1S(=O)(=O)NC1CCN(C(=O)C2CCCCC2)CC1 | 2.1 |
| CCc1ccc(S(=O)(=O)c2ccccc2)cc1S(=O)(=O)NC[C@H](C)c1ccccc1 | 3.6 |

Read the next record carefully.
Query :: Suppose we examine the molecule "CC(C)c1ccc(S(=O)(=O)c2cc(F)cc(F)c2)cc1S(=O)(=O)NCCc1ccccn1" ; what fold induction at 15 µM value has been reported?
Result :: 2.9

###

Molecular target: SFRP-1 (Homo sapiens)
Experiment: Cell-based assay for in vitro measurement of SFRP-1/SARP2 antagonist activity (U2OS cells co-transfected with 16x TCF-tk-Luciferase reporter, Wnt and hSFRP-1)
Conditions: U2OS, read-out: Fold Induction with SFRP-1, Conc 15 μM; with SFRP-1; fold induction over SFRP-1 control, single dose
Please use rule met whenever fold induction at 15 µM is not below 2, and rule not met whenever it is.

# example entries with known answers
| Compound | Class |
| --- | --- |
| Cc1ccc(S(=O)(=O)c2ccc(F)cc2)cc1S(=O)(=O)NC1CCOCC1 | rule met |
| Cc1ccc(S(=O)(=O)c2ccc(NCC3CC3)cc2)cc1S(=O)(=O)NCCCn1ccnc1 | rule met |

Would you kindly look at the next entry?
Query :: Does fold induction at 15 µM meet or surpass 2 for "Cc1ccc(S(=O)(=O)c2ccc(N3CCCCC3)cc2)cc1S(=O)(=O)NCCCn1ccnc1" ?
Result :: rule not met

###

Target: SFRP-1 (Homo sapiens)
Sequence (Q8N474 32-314): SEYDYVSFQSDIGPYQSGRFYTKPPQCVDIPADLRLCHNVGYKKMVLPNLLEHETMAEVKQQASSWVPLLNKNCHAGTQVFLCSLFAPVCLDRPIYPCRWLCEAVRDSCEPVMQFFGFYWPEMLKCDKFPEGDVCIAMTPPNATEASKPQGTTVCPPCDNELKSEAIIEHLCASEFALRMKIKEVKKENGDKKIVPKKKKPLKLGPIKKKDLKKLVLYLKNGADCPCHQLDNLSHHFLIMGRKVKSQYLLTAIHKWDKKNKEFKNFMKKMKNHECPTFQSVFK
Assay: Cell-based assay for in vitro measurement of SFRP-1/SARP2 antagonist activity (U2OS cells co-transfected with 16x TCF-tk-Luciferase reporter, Wnt and hSFRP-1);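 note: U2OS cells co-transfected with a TCF-tk luciferase reporter, a Wnt vector, hSFRP-1 or empty vector and CMV-βgal, luciferase luminescence read in cell lysates alongside βgal activity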
Settings: U2OS, read-out: Fold Induction without SFRP-1, Conc 15 μM; single dose; luciferase reporter; cells without SFRP-1 (specificity control)
fold induction at 15 µM: recorded values
Form field (numeric): enter value without unit.

| Compound | Study Target | Result |
| --- | --- | --- |
| CC(C)c1cc(C(C)C)c(S(=O)(=O)c2ccc(F)cc2)cc1S(=O)(=O)NCCc1ccncc1 [Example 633] | SFRP-1 (Homo sapiens) | 1 |
| Cc1nn(C)c(Cl)c1S(=O)(=O)c1ccc(C(C)C)c(S(=O)(=O)NCCc2ccccn2)c1 [Example 512] | SFRP-1 (Homo sapiens) | 1.1 |
| COc1ccc(Cl)cc1S(=O)(=O)c1ccc(C(C)C)c(S(=O)(=O)NCCc2ccccn2)c1 [Example 509] | SFRP-1 (Homo sapiens) | 1 |

Query :: Suppose we examine the compound CC(C)c1ccc(S(=O)(=O)c2ccc(F)cc2)cc1S(=O)(=O)NCCN1CCCCC1 [Example 527] ; what fold induction at 15 µM value has been reported?
Result :: 1.2
